- Test system: RAW-Dual (murine macrophage reporter line)
- Assay method text: NF-kB reporter (SEAP) activity fold change vs agonist alone; higher = enhanced NF-kB activity
- Cond: modulator concentration 10 µM; agonist: CpG ODN 1826 0.5 ug/mL
Let's look at some compounds and their measured NF-kB reporter.
Please reply with the number alone, leaving off any unit.

Here are 5 compounds together with their reported answers.
[
  {
    "Smiles str": "O=C(CSc1ccc2nc(-c3ccccc3)cn2n1)Nc1ccc(Br)cc1",
    "Target desc": "RAW-Dual (murine macrophage reporter line)",
    "NF-kB reporter": 0.931
  },
  {
    "Smiles str": "Cc1c(NC(=S)NC(=O)c2ccccc2[N+](=O)[O-])cccc1-c1nc2ccccc2o1",
    "Target desc": "RAW-Dual (murine macrophage reporter line)",
    "NF-kB reporter": 0.898
  },
  {
    "Smiles str": "COc1ccccc1N1CCN(c2ncnc3c2cnn3-c2cc(C)cc(C)c2)CC1",
    "Target desc": "RAW-Dual (murine macrophage reporter line)",
    "NF-kB reporter": 1.2
  },
  {
    "Smiles str": "C[C@H](Oc1cc(-c2cnn(C3CCNCC3)c2)cnc1N)c1c(Cl)ccc(F)c1Cl",
    "Target desc": "RAW-Dual (murine macrophage reporter line)",
    "NF-kB reporter": 0.85
  },
  {
    "Smiles str": "CCOCC(=O)Nc1ccc(N2CCCCC2=O)c(C)c1",
    "Target desc": "RAW-Dual (murine macrophage reporter line)",
    "NF-kB reporter": 0.884
  }
]

Recorded NF-kB reporter for "C[C@@H](O)[C@H]1C(=O)N2C(C(=O)O)=C(SCCNC=N)C[C@H]12" , please?
1.17

Recorded NF-kB reporter for "CN1CC(=O)N2[C@H](c3ccc4c(c3)OCO4)c3[nH]c4ccccc4c3C[C@@H]2C1=O" , please?
0.821

Recorded NF-kB reporter for "COc1ccc(C=Nc2ccc(OC(C)=O)cc2)cc1" , please?
0.738

Recorded NF-kB reporter for "O=c1[nH]nc(Br)c(=O)[nH]1" , please?
1.04

Recorded NF-kB reporter for "CCOC(=O)C1=C(C)NC(=Cc2ccccc2[N+](=O)[O-])C1=O" , please?
1.66

----------
- Tested on: RAW-Dual (murine macrophage reporter line)
- Assay method text: IRF reporter (Lucia luciferase) activity fold change vs agonist alone; higher = enhanced IRF activity
- Cond: modulator concentration 10 µM; agonist: MPLA […]
// label 0 strictly below 1 in IRF reporter; label 1 otherwise

[
  {
    "Molecule": "CCOC(=O)C1=C(C)NC(C)=C(C(=O)OC)C1c1ccc([N+](=O)[O-])cc1 (stereo not given)",
    "Target desc": "RAW-Dual (murine macrophage reporter line)",
    "Cat": "label 1"
  },
  {
    "Molecule": "CCOc1ccc2nc(SC3CC(=O)N(c4cccc(Cl)c4)C3=O)sc2c1 (stereo not given)",
    "Target desc": "RAW-Dual (murine macrophage reporter line)",
    "Cat": "label 1"
  },
  {
    "Molecule": "CCCCCCC1OCC2(CO)C(C)C=C(C)C1C2C (stereo not given)",
    "Target desc": "RAW-Dual (murine macrophage reporter line)",
    "Cat": "label 1"
  },
  {
    "Molecule": "CCOC(=O)c1ccc2nc(NC(=O)c3ccco3)sc2c1",
    "Target desc": "RAW-Dual (murine macrophage reporter line)",
    "Cat": "label 1"
  },
  {
    "Molecule": "C=Cc1c(C)c2cc3nc(cc4[nH]c(cc5nc(cc1[nH]2)C(C)=C5CCC(=O)O)c(CCC(=O)OC)c4C)[C@@]1(C)C3=CC=C(C(=O)OC)[C@H]1C(=O)OC",
    "Target desc": "RAW-Dual (murine macrophage reporter line)",
    "Cat": "label 0"
  }
]

Identify whether the reported IRF reporter of the following molecule is 1 or greater: "CN(C)CCC=C1c2ccccc2Sc2ccc(Cl)cc21.Cl"
label 1

Identify whether the reported IRF reporter of the following molecule is 1 or greater: "COc1ccc2ccccc2c1C=C1SC(=S)N(CC(=O)O)C1=O"
label 1

Identify whether the reported IRF reporter of the following molecule is 1 or greater: "Cn1cnc2cc(NCc3nc4ccccc4n3C)ccc21"
label 1

Identify whether the reported IRF reporter of the following molecule is 1 or greater: "CN(C)C/C=C/C(=O)Nc1cc2c(Nc3ccc(F)c(Cl)c3)ncnc2cc1O[C@H]1CCOC1"
label 0

----------
Let's look at some molecules and their measured NF-kB reporter.
- Test system: RAW-Dual (murine macrophage reporter line)
- Assay method text: NF-kB reporter (SEAP) activity fold change vs agonist alone; higher = enhanced NF-kB activity
- Cond: modulator concentration 10 µM; agonist: CpG ODN 1826 0.5 ug/mL
Please reply with the number alone, leaving off any unit.

[
  {
    "Molecule": "COc1c(C)c2c(c(O)c1C/C=C(\\C)CCC(=O)OCCN1CCOCC1)C(=O)OC2",
    "NF-kB reporter": 0.66
  },
  {
    "Molecule": "COc1ccc(CN(CCN(C)C)c2ccccn2)cc1.O=C(O)C=CC(=O)O",
    "NF-kB reporter": 0.857
  },
  {
    "Molecule": "Oc1c2c(nc3cc(-c4ccc(Cl)cc4)nn13)CCS2",
    "NF-kB reporter": 1.1
  },
  {
    "Molecule": "CC1=C(C(=O)Nc2ccc(C)cn2)C(c2ccccc2Cl)C2=C(CCCC2=O)N1 (stereo unspecified)",
    "NF-kB reporter": 1.01
  },
  {
    "Molecule": "O=C(/C=C/c1cccc(S(=O)(=O)Nc2ccccc2)c1)NO",
    "NF-kB reporter": 2.21
  }
]

Recorded NF-kB reporter for "CC1CCN(c2cc(N3CCNCC3)ncn2)CC1" , please?
0.972

Recorded NF-kB reporter for "CCCCCCCC(=O)N[C@H](CN1CCCC1)[C@H](O)c1ccc2c(c1)OCCO2" , please?
0.989

Recorded NF-kB reporter for O=S(=O)(Cc1cccc(Cl)c1)N1C2CCC1CC(Oc1cccnc1)C2 (stereo unspecified) , please?
1.07

Recorded NF-kB reporter for "O=C(O)CCCCCN1C(=O)C(=Cc2cn(-c3ccccc3)nc2-c2cccs2)SC1=S" , please?
1.02

Recorded NF-kB reporter for CCC(C)NS(=O)(=O)c1ccc([N+](=O)[O-])cc1 (stereo unspecified) , please?
1.13

Recorded NF-kB reporter for "CN1CCC(=C2c3ccccc3CCc3sccc32)CC1.O=C(O)CC(O)C(=O)O" , please?
0.574

Recorded NF-kB reporter for "CC(=O)OCCN(CCOC(C)=O)c1c(C)[nH]c(=O)[nH]c1=O" , please?
0.864

Recorded NF-kB reporter for "Cc1cc(C#N)cc(C)c1Oc1nc(Nc2ccc(C#N)cc2)nc(N)c1Br" , please?
1.15

Recorded NF-kB reporter for "Clc1ccc(C=NN2CCN(C(c3ccccc3)c3ccccc3)CC2)cc1" , please?
1.06

Recorded NF-kB reporter for CC(C)(C)C(O)/C=C/c1ccc2c(c1)OCO2 (stereo unspecified) , please?
1.19

Recorded NF-kB reporter for CS(=O)(=O)C1CCN(C(=O)C2(c3ccccc3)CCOCC2)C1 (stereo unspecified) , please?
0.986

Recorded NF-kB reporter for "CC(C)c1nc(CN(C)C(=O)N[C@@H](CCN2CCOCC2)C(=O)N[C@H](CC[C@H](Cc2ccccc2)NC(=O)OCc2cncs2)Cc2ccccc2)cs1" , please?
1.29

Recorded NF-kB reporter for "Cc1cccc(C)c1N(CC(=O)Nc1ccc(-c2ncon2)cc1)C(=O)C1CCS(=O)(=O)CC1" , please?
1.06

Recorded NF-kB reporter for "CC1=NN(c2ccc(C(=O)O)cc2)C(=O)C1=Cc1ccc(-c2cc(C)c(C)cc2[N+](=O)[O-])o1" , please?
0.951

Recorded NF-kB reporter for "CCOC(=O)Cc1cc(OC)c(OC)cc1C(C)=NNc1ccccc1" , please?
0.719

Recorded NF-kB reporter for CC(C)Oc1ccc(C(=O)N2CCC(c3ccccc3)S(=O)(=O)CC2)cn1 (stereo unspecified) , please?
1.06

----------
- Tested on: RAW-Dual (murine macrophage reporter line)
- Assay method text: NF-kB reporter (SEAP) activity fold change vs agonist alone; higher = enhanced NF-kB activity
- Cond: modulator concentration 10 µM; agonist: LPS 0.1 ug/mL
Let's look at some compounds and their measured NF-kB reporter.
Please reply with the number alone, leaving off any unit.

Here are 6 compounds together with their reported answers.
[
  {
    "Compound": "CC(=O)Nc1nnc(CCS(=O)(=O)c2ccc(Br)cc2)s1",
    "Target desc": "RAW-Dual (murine macrophage reporter line)",
    "NF-kB reporter": 1.05
  },
  {
    "Compound": "O=C(Cc1ccc(F)cc1F)N1CCC(n2c(=O)[nH]c3ccccc3c2=O)CC1",
    "Target desc": "RAW-Dual (murine macrophage reporter line)",
    "NF-kB reporter": 1.15
  },
  {
    "Compound": "Cc1ccc(NC(=O)C(C#N)=Cc2ccc(-c3cccc([N+](=O)[O-])c3)o2)cc1",
    "Target desc": "RAW-Dual (murine macrophage reporter line)",
    "NF-kB reporter": 1.06
  },
  {
    "Compound": "O=c1ncnc2[nH][nH]cc1-2",
    "Target desc": "RAW-Dual (murine macrophage reporter line)",
    "NF-kB reporter": 0.865
  },
  {
    "Compound": "Cc1nnc(NN=Cc2ccc(O)c([N+](=O)[O-])c2)[nH]c1=O",
    "Target desc": "RAW-Dual (murine macrophage reporter line)",
    "NF-kB reporter": 1.01
  },
  {
    "Compound": "COc1ccccc1OCC(O)CN1CCN(CC(=O)Nc2c(C)cccc2C)CC1.Cl.Cl (configuration not stated)",
    "Target desc": "RAW-Dual (murine macrophage reporter line)",
    "NF-kB reporter": 0.982
  }
]

Recorded NF-kB reporter for O=C1CNC(=O)N1CC(O)Cn1c2ccc(Br)cc2c2cc(Br)ccc21 (configuration not stated) , please?
0.791

Recorded NF-kB reporter for CC(C)NCC(O)COc1ccccc1C(C)(C)C.Cl (configuration not stated) , please?
1.02

Recorded NF-kB reporter for "CCOC(=O)c1c(C)nn(C2CCCCC2)c1N" , please?
1.02
